Hello, the source for this data is ChEMBL document CHEMBL4431370, in case you need it.

Target: Poly [ADP-ribose] polymerase 1 (Homo sapiens, UniProt P09874)
Sequence (P09874 whole entry): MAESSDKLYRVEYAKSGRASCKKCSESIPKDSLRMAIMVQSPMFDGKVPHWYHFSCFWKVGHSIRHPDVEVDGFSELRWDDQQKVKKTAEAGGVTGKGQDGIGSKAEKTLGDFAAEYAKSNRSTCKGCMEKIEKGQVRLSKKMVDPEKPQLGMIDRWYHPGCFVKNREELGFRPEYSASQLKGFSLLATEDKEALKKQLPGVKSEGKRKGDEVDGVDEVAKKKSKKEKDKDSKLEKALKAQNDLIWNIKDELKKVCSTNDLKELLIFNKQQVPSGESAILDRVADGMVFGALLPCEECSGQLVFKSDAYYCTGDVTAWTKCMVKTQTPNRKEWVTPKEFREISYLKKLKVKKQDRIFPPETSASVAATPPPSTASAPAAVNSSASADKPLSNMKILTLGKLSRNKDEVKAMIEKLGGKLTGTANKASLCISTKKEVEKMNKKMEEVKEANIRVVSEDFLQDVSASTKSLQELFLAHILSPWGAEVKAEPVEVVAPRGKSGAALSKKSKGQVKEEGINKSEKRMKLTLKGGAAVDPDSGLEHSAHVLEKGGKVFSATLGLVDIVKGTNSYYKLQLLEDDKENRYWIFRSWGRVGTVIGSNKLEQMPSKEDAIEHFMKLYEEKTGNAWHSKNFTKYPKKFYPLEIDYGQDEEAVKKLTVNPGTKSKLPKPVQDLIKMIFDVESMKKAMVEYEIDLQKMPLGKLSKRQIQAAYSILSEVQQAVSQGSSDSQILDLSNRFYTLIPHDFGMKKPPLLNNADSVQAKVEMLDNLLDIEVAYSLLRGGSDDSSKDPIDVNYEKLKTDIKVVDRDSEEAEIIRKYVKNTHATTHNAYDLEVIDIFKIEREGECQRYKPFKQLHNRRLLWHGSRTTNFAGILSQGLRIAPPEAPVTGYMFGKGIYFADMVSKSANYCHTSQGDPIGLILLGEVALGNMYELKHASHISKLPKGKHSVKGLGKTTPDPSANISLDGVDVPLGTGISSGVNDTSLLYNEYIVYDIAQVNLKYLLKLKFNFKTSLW
Experiment: Inhibition of PARP-1 (unknown origin) after 1 hr in presence of NAD+/biotinylated NAD+/slDNA by ELISA
Value kind: pIC50
By convention, pIC50 is the negative base-10 log of a molar concentration.

The compound listed as O=C1NCCn2c(C3CCNCC3)nc3cncc1c32 shows pIC50 equal to 7.27

The compound listed as CCCCN1CCC(c2nc3cncc4c3n2CCNC4=O)CC1 shows pIC50 equal to 7.68

====

Tested on: MDA-MB-468
Test: Growth inhibition of human MDA-MB-468 cells after 72 hrs by SRB assay
Type: functional, cell-based
Settings: Homo sapiens, MDA-MB-468, 72 h
Value kind: pEC50
By convention, pEC50 is the negative base-10 log of a molar concentration.

Use the examples below as a reference point.
# Test smiles, System tested, pEC50
records = [
    ("O=C1NCCn2c(-c3ccc(N4CCNCC4)cc3)nc3cncc1c32", "MDA-MB-468", 4.03),
    ("CCNCc1ccc(-c2nc3cncc4c3n2CCNC4=O)cc1", "MDA-MB-468", 5.34),
    ("CC(C)CN1CCC(c2nc3cncc4c3n2CCNC4=O)CC1", "MDA-MB-468", 4.72),
]

# ---- query compound ----
pEC50 for MDA-MB-468 with input CNCc1ccc(-c2nc3cncc4c3n2CCNC4=O)cc1 equals 4.09
